target.or.system: LNX1_2, Q8TBB1
Sequence (Q8TBB1 371-470): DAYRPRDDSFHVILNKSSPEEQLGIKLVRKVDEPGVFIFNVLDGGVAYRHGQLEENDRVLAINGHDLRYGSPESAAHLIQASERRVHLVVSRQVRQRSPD
test.summary: holdup assay
Design: key: below the threshold = too weak to quantify, mostly under pKd 3.1 to 4
test.parameters: plain residues with an end cap or a label only (N-terminal biotin on a linker: ahx)
observation.type: pKd

Previously resolved entries follow.
TQKFRASTAL [FRMPD1, Q5SYB0] : below the threshold
TESNLQTSSC [CGN, Q9P2M7] : below the threshold
HTHSYIETHV [CNKSR2, Q8WXI2] : below the threshold
QPRTWLQSPV [RTKN, Q9BST9] : below the threshold
QDEKVKESYV [ABCA1, O95477] : below the threshold

[in] Return reported pKd; argument: EKQAKGDTEF [CACYBP, Q9HB71]
[out] below the threshold

[in] Quick one: pKd of TEAKLTETNA [MYO18A, Q92614] ?
[out] below the threshold

[in] Need pKd, item QNTDDVQTSF [ACE2, Q9BYF1]
[out] below the threshold

[in] # get_value(readout='pKd', item= APSRKLNTEI [TIAM1, Q13009] )
[out] below the threshold
